The origin of these recorded values is patent US8580832B2.

target: ERR1 (also known as ERR-α or ERR-1) (Homo sapiens, UniProt P11474); construct: the ^6His-tagged-ERR1 LBD; assay: TR-FRET assay: disruption of co-activator peptide binding to ERR1 LBD; details: 6His-tagged ERR1 LBD 6 nM, GST-SRC-2 peptide 6 nM, 25° C., 4-18 hours; average of 3 independent experiments
Can you tell me pEC50 for the items I'm about to list?
Numbers only, as −log10 of the molar value.

{"columns": ["molecule-smiles", "reported-value"],
 "data": [
  ["COc1cc(/C=C2\\SC(N3CCC(N(C)C)CC3)=NC2=O)ccc1Oc1ccc(C#N)cc1C(F)(F)F", 8.00],
  ["COCCNC1=NC(=O)/C(=C/c2ccc(Oc3ccc(C#N)cc3C(F)(F)F)c(OC)c2)S1", 6.95],
  ["N#Cc1ccc(Oc2ccc(/C=C3\\SC(NCCN4CCNC(=O)C4)=NC3=O)cc2F)c(C(F)(F)F)c1", 7.74]
]}

Task: Request the reported pEC50 associated with "N#Cc1ccc(Oc2ccc(/C=C3\SC(N)=NC3=O)cc2F)c2ccccc12"
Output: 7.74

----------
Give pEC50 for every item shown.
target: ERR1 (also known as ERR-α or ERR-1) (Homo sapiens, UniProt P11474); construct: the ^6His-tagged-ERR1 LBD; test: TR-FRET assay: disruption of co-activator peptide binding to ERR1 LBD; details: 6His-tagged ERR1 LBD 6 nM, GST-SRC-2 peptide 6 nM, 25° C., 4-18 hours; average of 3 independent experiments
One number for each entry, as −log10 of the molar value.

Study these solved cases before continuing.
{"columns": ["compound", "pEC50"],
 "data": [
  ["N#Cc1ccc(Oc2ccc(/C=C3\\SC(N4CCCC(O)C4)=NC3=O)cc2F)c(C(F)(F)F)c1 (stereo not shown) [Example 103]", 7.33],
  ["N#Cc1ccc(Oc2ccc(/C=C3\\SC(NCCC4CCOCC4)=NC3=O)cc2F)c(C(F)(F)F)c1 [Example 110]", 7.59]
]}

Respectfully, I request pEC50 for each entry included below.
1. CCS(=O)(=O)N1CCN(C2=NC(=O)/C(=C/c3ccc(Oc4ccc(C#N)cc4C(F)(F)F)c(OC)c3)S2)CC1 [Example 38]
2. COC(=O)c1ccc(Oc2ccc(/C=C3\SC(N4CCNC(=O)C4)=NC3=O)cc2OC)c(C(F)(F)F)c1 [Example 54]
3. N#Cc1ccc(Oc2ccc(/C=C3\SC(NCCn4cncn4)=NC3=O)cc2F)c(C(F)(F)F)c1 [Example 98]

Output:
1. 8.05
2. 7.13
3. 7.77

Take each entry in turn and give its pEC50.
1. N#Cc1ccc(Oc2ccc(/C=C3\SC(NCCCN4CCCC4=O)=NC3=O)cc2F)c(C(F)(F)F)c1 [Example 51]
2. CCS(=O)(=O)N1CCN(C2=NC(=O)/C(=C/c3ccc(Oc4ccc(C#N)cc4C(F)(F)F)c(F)c3)S2)CC1 [Example 44]

Output:
1. 7.54
2. 7.17

----------
What pEC50 was measured for each of the following?
Molecular target: ERR1 (also known as ERR-α or ERR-1) (Homo sapiens)
Construct: the ^6His-tagged-ERR1 LBD
Sequence (P11474 193-421 limits assumed): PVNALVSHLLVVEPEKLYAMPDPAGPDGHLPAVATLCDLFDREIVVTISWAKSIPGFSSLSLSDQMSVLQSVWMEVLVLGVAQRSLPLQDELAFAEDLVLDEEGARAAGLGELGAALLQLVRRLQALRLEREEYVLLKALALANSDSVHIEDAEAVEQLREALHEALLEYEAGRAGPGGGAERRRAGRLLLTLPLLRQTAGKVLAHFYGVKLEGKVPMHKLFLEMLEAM
Assay: TR-FRET assay: disruption of co-activator peptide binding to ERR1 LBD
Conditions: 6His-tagged ERR1 LBD 6 nM, GST-SRC-2 peptide 6 nM, 25° C., 4-18 hours; average of 3 independent experiments
Give bare numbers, as −log10 of the molar value.

Completed entries (count: 6):
{"columns": ["compound", "pEC50"],
 "data": [
  ["COc1cc(/C=C2\\SC(N3CCNC(=O)C3)=NC2=O)ccc1Oc1ccc(C(N)=O)cc1C(F)(F)F", 7.05],
  ["COc1cc(/C=C2\\SC(NCCc3cccnc3)=NC2=O)ccc1Oc1ccc(C#N)cc1C(F)(F)F", 7.92],
  ["COc1cc(/C=C2\\SC(NCCO)=NC2=O)ccc1Oc1ccc(C#N)cc1C(F)(F)F", 7.68],
  ["COC(=O)[C@H](CO)NC1=NC(=O)/C(=C/c2ccc(Oc3ccc(C#N)cc3C(F)(F)F)c(OC)c2)S1", 7.72],
  ["COC(=O)C1CCN(C2=NC(=O)/C(=C/c3ccc(Oc4ccc(C#N)cc4C(F)(F)F)c(OC)c3)S2)CC1", 7.60],
  ["COc1cc(/C=C2\\SC(N3CC(C)OC(C)C3)=NC2=O)ccc1Oc1ccc(C#N)cc1C(F)(F)F (stereo not shown)", 8.15]
]}

Task: Reported pEC50 for COc1cc(/C=C2\SC(NCC3CNCCO3)=NC2=O)ccc1Oc1ccc(C#N)cc1C(F)(F)F (stereo not shown) : what is it?
Output: 7.46
